- testTarget: Amine oxidase [flavin-containing] B (Homo sapiens)
- Sequence (P27338 whole entry): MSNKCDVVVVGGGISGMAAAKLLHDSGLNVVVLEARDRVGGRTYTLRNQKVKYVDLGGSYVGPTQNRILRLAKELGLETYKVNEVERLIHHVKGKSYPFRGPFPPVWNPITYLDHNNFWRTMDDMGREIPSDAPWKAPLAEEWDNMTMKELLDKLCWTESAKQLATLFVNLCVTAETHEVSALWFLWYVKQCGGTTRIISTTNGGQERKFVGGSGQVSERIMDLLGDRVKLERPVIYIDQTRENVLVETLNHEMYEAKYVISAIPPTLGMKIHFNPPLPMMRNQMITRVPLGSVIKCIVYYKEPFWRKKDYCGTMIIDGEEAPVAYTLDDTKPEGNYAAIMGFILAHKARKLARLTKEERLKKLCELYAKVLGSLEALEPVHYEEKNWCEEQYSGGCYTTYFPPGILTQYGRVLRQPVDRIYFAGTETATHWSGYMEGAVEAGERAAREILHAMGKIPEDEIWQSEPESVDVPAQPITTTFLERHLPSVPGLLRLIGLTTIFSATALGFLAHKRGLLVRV
- assayComment: biochemical
- Description: Inhibition of human recombinant MAO-B expressed in baculovirus infected BTI-TN-5B1-4 cells assessed as production of hydrogen peroxide from p-tyramine after 15 mins by microplate fluorescence assay
// reported IC50 for each item listed
The reply should be a number in µM, with the unit left off.

Use these answered entries as a reference point.
structureNotation: O=C(NNc1ccccc1)c1cc2ccccc2oc1=O
IC50 (µM): 4.52

structureNotation: CCOC(=O)c1cc2cccc(O)c2oc1=O
IC50 (µM): 14.8

structureNotation: CC(=O)c1cc2ccccc2oc1=O
IC50 (µM): 14.5

structureNotation: O=C(NNc1ccc(Cl)cc1)c1cc2ccccc2oc1=O
IC50 (µM): 1.19

[in] Give the value of IC50 reported for the following: CCOC(=O)c1cc2ccc(OCc3ccc(Cl)c(Cl)c3)cc2oc1=O
[out] 0.00947

[in] Quickly give me recorded IC50 for CC(=O)c1cc2c(ccc3ccccc32)oc1=O
[out] 2.01

* * *

- testTarget: Amine oxidase [flavin-containing] B (Homo sapiens, UniProt P27338)
- assayComment: Inhibition of human recombinant MAO-B expressed in baculovirus infected BTI-TN-5B1-4 cells assessed as production of hydrogen peroxide from p-tyramine at 100 uM after 15 mins by microplate fluorescence assay
- conditionNotes: human, bti-tn-5b1-4, 0.25 h, 100 µM
reportedProperty: inhibition (INH)

structureNotation: CC(=O)c1cc2ccc(O)cc2oc1=O
reportedProperty: inhibition (INH)
result: Not Active
//
structureNotation: O=C(O)c1cc2cc(Br)cc(Br)c2oc1=O
reportedProperty: inhibition (INH)
result: Not Active
//
structureNotation: O=C(c1ccccc1)c1cc2cc(Br)ccc2oc1=O
reportedProperty: inhibition (INH)
result: Not Active

* * *

- Species on record: Homo sapiens
- assayComment: Selectivity ratio of IC50 for human recombinant MAO-A to IC50 for human recombinant MAO-B
// Ratio IC50 lookup, one value per entry

Guide cases for Ratio IC50, answers given:
structureNotation: O=C(O)c1cc2ccc(OCc3cccc(Cl)c3)cc2oc1=O
result: > 55

structureNotation: NNC(=O)c1cc2ccccc2oc1=O
result: > 31100

structureNotation: CCOC(=O)c1cc2ccc(OCc3ccc(C(C)(C)C)cc3)cc2oc1=O
result: > 27

[in] For the molecule CCN(CC)c1ccc2cc(C(=O)c3ccccc3)c(=O)oc2c1 , report Ratio IC50.
[out] > 4.2

[in] State its Ratio IC50: CC(=O)c1cc2cc(O)ccc2oc1=O
[out] > 1.6

[in] Answer with the recorded Ratio IC50 for the molecule listed here: CC(=O)c1cc2cccc(O)c2oc1=O
[out] 0.93

[in] State, in one line, measured Ratio IC50 of O=C(NNc1ccccc1)c1cc2ccccc2oc1=O
[out] 9.16

[in] Specify measured Ratio IC50 for O=C(NNc1ccc([N+](=O)[O-])cc1[N+](=O)[O-])c1cc2ccccc2oc1=O .
[out] 1.08

[in] # return recorded Ratio IC50 for input CCOC(=O)c1cc2ccc(OCc3cccc(Cl)c3)cc2oc1=O
[out] > 1630

Measured values drawn from ChEMBL document CHEMBL1828496 for this set.
